Kindly state Plant response rating, Wheat for each of the entries shown.
# Tested on: wheat (Triticum aestivum)
# assayDetails: Test A postemergence, wheat
# Format: in vivo
# measurementSetup: 500 g ai/ha, visual injury, 0 to 100 scale (0 no effect, 100 complete control), approximately 10 days
I only need the number, thanks.

// map CC1(COc2cccc(C3CNC(=O)C3C(=O)Nc3cccc(F)c3F)c2)COC1 (stereo not shown) to recorded Plant response rating, Wheat (system: wheat (Triticum aestivum)) 0

// map CN1CC(c2cccc(Oc3ccc(C(F)(F)F)cn3)c2)C(C(=O)Nc2ccccc2F)C1=O (single isomer, unassigned) to recorded Plant response rating, Wheat (system: wheat (Triticum aestivum)) 50

// map O=C1NCC(c2cccc(OCc3ccccc3)c2)C1C(=O)Nc1cccc(F)c1F (stereo not shown) to recorded Plant response rating, Wheat (system: wheat (Triticum aestivum)) 0

// map O=C1NCC(c2cccc(OCC3OCCO3)c2)C1C(=O)Nc1ccccc1Cl (stereo not shown) to recorded Plant response rating, Wheat (system: wheat (Triticum aestivum)) 20
